Some binders, each annotated with its measured Kd.
Molecular target: H3K9me3 peptide
Experiment: fluorescence polarization, FITC-peptide 0.5 nM

| BINDER | Kd, µM |
| --- | --- |
| Cbx2.VD chromodomain (tags removed) (designed binder) GEDVFAAECILSKRLRKGKLEYLVKWEGWSSKHNSWEPEENILDPRLLLAFQKKEHEKEVQNR | 5 |
| Cbx7.wt chromodomain (tags removed), O95931 4-75 (protein) SAIGEQVFAVESIRKKRVRKGKVEYLVKWKGWPPKYSTWEPEEHILDPRLVMAYEEKEERDRASGYRKRGPK | 30 |
| Cbx7 K33E chromodomain (tags removed) (designed binder) SAIGEQVFAVESIRKKRVRKGKVEYLVKWEGWPPKYSTWEPEEHILDPRLVMAYEEKEERDRASGYRKRGPK | 20 |
